assay: Pharmacokinetic study, intravenous administration of aqueous solution of Working Example 1; type: in vivo, Sprague-Daweley IGS rats; conditions: Sprague-Dawley IGS, rat, blood, iv; female rats, i.v., aqueous solution of Working Example 1, dose of Compound (I) 1 mg/kg (Group 1), average of three; read-out: AUC0-24
observedProperty: AUC(0-t) (ng·h/mL)
Express your answer in ng·h/mL, writing the number without its unit.

Q: Request the reported AUC(0-t) associated with `O=C(Nc1cc(C(F)(F)F)cc(C(F)(F)F)c1)c1cc(Cl)ccc1O`
Result: 388

----------
assay: Pharmacokinetic study, intravenous administration of aqueous solution of Working Example 1; format: in vivo, Sprague-Daweley IGS rats; conditions: Sprague-Dawley IGS, rat, blood, iv; female rats, i.v., aqueous solution of Working Example 1, dose of Compound (I) 2 mg/kg (Group 2), average of three; read-out: AUC0-24
observedProperty: AUC(0-t)
Show the value, then the unit it is measured in.

Q: Request the reported AUC(0-t) associated with O=C(Nc1cc(C(F)(F)F)cc(C(F)(F)F)c1)c1cc(Cl)ccc1O [Compound (I)]
Result: 540 ng·h/mL

----------
test: Pharmacokinetic study, intravenous administration of aqueous solution of Working Example 1; assay type: in vivo, Sprague-Daweley IGS rats; details: Sprague-Dawley IGS, rat, blood, iv; male rats, i.v., aqueous solution of Working Example 1, dose of Compound (I) 2 mg/kg (Group 2), average of three; read-out: AUC0-24
observedProperty: AUC(0-t) (ng·h/mL)
Express your answer in ng·h/mL, writing the number without its unit.

Q: Request the reported AUC(0-t) associated with O=C(Nc1cc(C(F)(F)F)cc(C(F)(F)F)c1)c1cc(Cl)ccc1O [Compound (I)]
Result: 620

----------
Test: Pharmacokinetic study, intravenous administration of aqueous solution of Working Example 1
Type: in vivo, Sprague-Daweley IGS rats
Details: Sprague-Dawley IGS, rat, blood, iv; female rats, i.v., aqueous solution of Working Example 1, dose of Compound (I) 2 mg/kg (Group 2), average of three
Description: The aqueous solution obtained in Working Example 1 was filtered and sterilized with Millex (registered trademark)-GV (0.22 μm; available from Millipore Japan Corporation/Merck Millipore Corporation) and intravenously administered to female and male Sprague-Daweley IGS rats (6 weeks old) to investigate the pharmacokinetics of Compound (I). […] As foods for rats, a standard dry food in stick-shape (whose components were already analyzed) was used. […]
observedProperty: C0 (ng/mL)
Express your answer in ng/mL, writing the number without its unit.

Q: Request the reported C0 associated with O=C(Nc1cc(C(F)(F)F)cc(C(F)(F)F)c1)c1cc(Cl)ccc1O [Compound (I)]
Result: 2820

----------
experiment: Pharmacokinetic study, intravenous administration of aqueous solution of Working Example 1; assay type: in vivo, Sprague-Daweley IGS rats; conditions: Sprague-Dawley IGS, rat, blood, iv; male rats, i.v., aqueous solution of Working Example 1, dose of Compound (I) 3 mg/kg (Group 3), average of three; read-out: AUC0-24
observedProperty: AUC(0-t) (ng·h/mL)
Express your answer in ng·h/mL, writing the number without its unit.

Q: Request the reported AUC(0-t) associated with O=C(Nc1cc(C(F)(F)F)cc(C(F)(F)F)c1)c1cc(Cl)ccc1O [Compound (I)]
Result: 1260

----------
Experiment: Pharmacokinetic study, intravenous administration of aqueous solution of Working Example 1
Assay type: in vivo, Sprague-Daweley IGS rats
Conditions: Sprague-Dawley IGS, rat, blood, iv; male rats, i.v., aqueous solution of Working Example 1, dose of Compound (I) 2 mg/kg (Group 2), average of three
Source text: The aqueous solution obtained in Working Example 1 was filtered and sterilized with Millex (registered trademark)-GV (0.22 μm; available from Millipore Japan Corporation/Merck Millipore Corporation) and intravenously administered to female and male Sprague-Daweley IGS rats (6 weeks old) to investigate the pharmacokinetics of Compound (I). […] As foods for rats, a standard dry food in stick-shape (whose components were already analyzed) was used. […]
observedProperty: C0 (ng/mL)
Express your answer in ng/mL, writing the number without its unit.

Q: Request the reported C0 associated with O=C(Nc1cc(C(F)(F)F)cc(C(F)(F)F)c1)c1cc(Cl)ccc1O [Compound (I)]
Result: 3210
